Test system: SNB-75 CNS
Assay: NCI tumour cell line growth inhibition, 48 h
Could you please report measured TGI for the items listed next?

Use the examples below as a reference point.
| COMPOUND | TGI |
| --- | --- |
| CN(C(=O)Cc1cccc(N=C=S)c1)[C@H]1CCCC[C@@H]1N1CCCC1 | 27.8 µM |
| CC(C)c1c(O)c(O)c2c(c1O)C(=O)C(O)=C1C(C)(C)CCC[C@@]12C | 8.12 µM |
| COc1c(C(=O)/C=C/c2ccccc2)c(O)cc2occc12 | 15.1 µM |
| C=CCCCCC/C=C\[C@@H](O)C#CC#C/C=C/CO | > 100 µM |
| O=c1cc(NCC(O)CN2CCCC2)n(Cc2ccccc2)c(=O)n1Cc1ccccc1 (centres undefined) | 81.5 µM |

Batch request: TGI for each of the following compounds.
1. Cc1cc(C(=O)Nc2ccc3cc(CN4CCOCC4)ccc3n2)c(C)n1-c1ccccc1
2. O=C(O)CNS(=O)(=O)c1ccc(NC(=O)c2ccc([N+](=O)[O-])cc2)cc1
3. O=C(CC(=O)n1nc(-c2ccccc2)c(N=Nc2ccc(Cl)cc2)c1-c1ccccc1)Nc1ccc(Cl)cc1

[A]
1: 15.8 µM; 2: > 100 µM; 3: > 100 µM

Working through the 6 compounds below one at a time, give TGI for each.
1. COC(=O)CC1N=C(NC#N)N(CCc2c[nH]c3ccccc23)C1=O (centres undefined)
2. Cc1cc(N(CCC#N)CCC#N)ccc1/C=C(\NC(=O)/C=C/c1ccccc1)C(N)=O
3. Clc1ccc(C[P+](c2ccccc2)(c2ccccc2)c2ccccc2)c(Cl)c1
4. COC(=O)C1=CS/C(=C2\S[C@@H]3[C@H](S2)[C@H]2C=C[C@@H]3C2)S1
5. CC1=CC(C)(C)N=C2SC(c3ccc(N)cc3)=NN12
6. CC1(C)C(=O)/C(=C\c2cccnc2)C[C@]2(C)[C@H]3CC[C@@H]4[C@H]5[C@H](C(=O)/C=C/c6cccnc6)CC[C@]5(C(=O)O)CC[C@@]4(C)[C@]3(C)CC[C@@H]12

[A]
["> 100 µM", "> 100 µM", "7.54 µM", "> 100 µM", "> 100 µM", "44.2 µM"]

Provide each entry's TGI from the list below.
1. CCOC(=O)c1cn2c(n1)sc1cc(Cl)ccc12
2. Cn1c([C@H](C#N)c2ncccc2[N+](=O)[O-])nc2ccccc21
3. COC(=O)C12CC3CC(CC(C(=O)O)(C3)C1)C2

[A]
> 100 µM
67.1 µM
> 100 µM

Would you be so kind as to report TGI for each listed record?
1. O=C1/C(=C(/c2ccccc2)N2CCOCC2)Cc2ccccc21
2. NS(=O)(=O)c1ccc(-c2ccc3c(NC(=O)C4CC4)n[nH]c3c2)cc1
3. COc1ccc(-c2nc3ccccn3c2/C=C/C(=O)c2cc(OC)c(OC)c(OC)c2)cc1OC
4. CCO/C=N\C1=C(C#N)SC2=N/C(=C\c3ccc(OC)cc3)C(=O)N21
5. O=C(Nc1nnc(-c2ccc(Cl)cc2)o1)C(SC(=S)N1CCOCC1)c1ccccc1 (centres undefined)
6. CCOC(=O)Cn1c(=O)ccn(COCCO)c1=O
7. O=C1c2ccccc2C(=O)C1(O)c1c[nH]c2ccccc12
8. CC(=O)Nc1ccc(/C=C/c2ccc(NC(=O)Nc3ccc(/C=C/c4ccc(NC(C)=O)cc4S(=O)(=O)O)c(S(=O)(=O)O)c3)cc2S(=O)(=O)O)c(S(=O)(=O)O)c1

[A]
1. 3.66 µM
2. > 25 µM
3. > 100 µM
4. 46.6 µM
5. > 100 µM
6. > 100 µM
7. > 100 µM
8. > 100 µM

Please report TGI for every entry that follows.
1. COc1c(C)cc2c(c1O)C1C3[C@H]4SC[C@@]5(NCCC6=C5NC5C=CC=CC65)C(=O)OCC(c5c6c(c(C)c(OC(C)=O)c54)OCO6)N3[C@@H](O)C(C2)N1C (some centres undefined)
2. Cc1cc2nc(C=C(C(F)(F)F)C(F)(F)F)oc2cc1C
3. CN(Cc1ccccc1)C(=O)c1ccccc1C(=O)O
4. Cc1nnc(NS(=O)(=O)c2ccc(N=Nc3cc(N=Nc4ccc(S(=O)(=O)Nc5nnc(C)s5)cc4)c4c(NC(=O)C(Cl)Cl)cccc4c3OC(=O)C(Cl)Cl)cc2)s1 (tested in a mixture with another compound)

[A]
["< 0.01 µM", "> 10 µM", "> 100 µM", "82 µM"]

====

System: A549 NSCLC
Experiment: NCI tumour cell line growth inhibition, 48 h
REPORTED_ENDPOINT: TGI

These solved cases illustrate the format of a correct answer.
| COMPOUND | TGI |
| --- | --- |
| C(/C=C/Nc1ccc(Oc2ccccc2)cc1)=Nc1ccc(Oc2ccccc2)cc1 | 42 µM |
| COC(=O)C1=CS/C(=C2\S[C@@H]3[C@H](S2)[C@H]2C=C[C@@H]3C2)S1 | > 100 µM |
| CSc1cc(Cl)c(C)cc1S(=O)(=O)NC(=O)NNc1cccc(C(F)(F)F)n1 | > 100 µM |
| Clc1ccc(-c2cc3nc4ccccc4nc3o2)cc1 | > 100 µM |
| COc1cc2ncnc(-n3ncc4cc(NC(=O)Nc5ccccc5)ccc43)c2cc1OC | 8.74 µM |
| CCc1nc2cc(F)c(/C=C/C(=O)NO)cc2c(=O)n1CCc1ccccc1 | 2.67 µM |
| CCOP(=O)(OCC)C(c1ccc(F)cc1)N(C(=O)NC(F)(F)F)c1cccc(C(F)(F)F)c1 (centres undefined) | > 100 µM |
| CCCC1=C(CC)C(C(=O)Nc2c(C)cccc2C)=NC(S)N1 (centres undefined) | > 100 µM |
| CC(=O)O[C@H]1C(=O)[C@@]2(C)[C@H]([C@H](OC(=O)c3ccoc3)[C@]3(O)C[C@H](OC(=O)[C@H](O)[C@@H](NC(=O)c4ccccc4)c4ccccc4)C(C)=C1C3(C)C)[C@]1(OC(C)=O)CO[C@@H]1C[C@@H]2O | > 12.5 µM |
| O=C1NC2O[C@H](CNC(=O)c3cc(Br)c[nH]3)CC2(O)N1 (mixture of isomers) | > 100 µM |

Please state TGI for every compound in the list that follows.
1. O=C1CC(c2cccc([N+](=O)[O-])c2)C2(C(=O)NC(=O)NC2=O)C(c2cccc([N+](=O)[O-])c2)C1 (centres undefined)
2. CC(=O)Oc1ccc2cc(-c3ccccc3OC(C)=O)c(=O)oc2c1
3. COc1ccc(C(=O)c2cc(C)c(OC)c(C)c2)cc1OC(=O)CCl
4. c1ccc(Sc2ccc(Cc3nc4cc5ccccc5cc4[nH]3)cc2)cc1
5. O=C(Nc1n[nH]c2cc(-c3ccccc3)ccc12)C1CC1

[A]
["> 100 µM", "> 100 µM", "> 100 µM", "> 61.4 µM", "> 25 µM"]

Below are some compounds; for each one, tell me its TGI.
1. Cc1ccc(N=C/C=C(\Nc2ccc(C)cc2)c2ccc(Cl)cc2)cc1
2. CCN(CC)CCSc1c2cc(OC)ccc2nc2ccc(OC)cc12

[A]
["61.1 µM", "> 70.9 µM"]

// each listed compound needs a value for TGI
1. CCOC(=O)c1ccc(N[C@@H]2c3cc4c(cc3C(c3cc(OC)c(O)c(OC)c3)[C@H]3C(=O)OCC32)OCO4)cc1O (some centres undefined)
2. COc1c2c(cc3c1OCO3)[C@]13C=C[C@H](OC)C[C@H]1N(C2)CC3O (some centres undefined)

[A]
2.51 µM
> 100 µM

====

Test system: IGROV1 ovarian
Assay: NCI tumour cell line growth inhibition, 48 h
REPORTED_ENDPOINT: TGI

# annotated cases, reported TGI shown
| COMPOUND | REPORTED_ENDPOINT | RESULT |
| --- | --- | --- |
| CC/C=C\C[C@H](O)C/C=C1/C(=O)C=C[C@@H]1C/C=C\CCCC(=O)OC | TGI | 8.71 µM |
| CC(=O)[C@@H](C)C(=O)N1C(=O)OC[C@@]12[C@@H]1CC[C@@H](C1)C2(C)C | TGI | > 100 µM |
| CCOC(=O)N[C@@H]1C(CC(=O)OC)O[C@H]2OC(C)(C)O[C@H]21 (some centres undefined) | TGI | > 100 µM |
| CCOC(=O)c1ccc(N[C@@H]2c3cc4c(cc3C(c3cc(OC)c(O)c(OC)c3)[C@H]3C(=O)OCC32)OCO4)cc1O (some centres undefined) | TGI | > 43.5 µM |

Consider the following items and state reported TGI for each.
1. COc1cc2cc3c4cc(OC)c(OC)cc4cc[n+]3c(C)c2cc1OC (tested in a mixture with another compound)
2. CC(C)=CCC(O)[C@](C)(O)[C@H]1[C@H](O)C[C@@]2(C)[C@@H]3CCc4cc(O)c(OC5OC(CO)C(O)C(O)C5O)cc4C3(C)C(=O)C[C@]12C (some centres undefined)
3. COC(=O)C12CC3CC(CC(C(=O)O)(C3)C1)C2
4. COc1ccc(C2=C(Cl)c3cc(OC)c(OC)cc3C2Cl)cc1 (centres undefined)
5. O=C(NC(Cc1ccccc1)(Cc1ccc(O)cn1)C(=O)O)c1ccccc1 (centres undefined)
6. N#CCCC(CCC#N)(CCC#N)NO

[A]
> 100 µM
> 100 µM
> 100 µM
35.7 µM
> 100 µM
> 100 µM
